- Test system: IGROV1 ovarian
- METHOD DESCRIPTION: NCI tumour cell line growth inhibition, 48 h
MEASUREMENT NAME: GI50

>>> result("Cc1ccc(NCCN2CCCCC2)c2c(=O)c3ccccc3sc12")
"1.48 µM"
>>> result("CCOC(=O)C1=C(N)CCC1C (stereo not given)")
"> 100 µM"
>>> result("C/C=C(\\C)C(=O)O[C@H]1C=CC(=O)O[C@H]1CC[C@H](O)[C@H](C)O")
"4.17 µM"
>>> result("CN1C(=O)/C(=C/c2c(Cl)[nH]c3ccccc23)c2ccccc21")
"37.6 µM"
>>> result("CC(=O)CC(=O)Nc1c(C)[c]([Hg][O]C(C)=O)c(C)[c]([Hg][O]C(C)=O)[c]1[Hg][O]C(C)=O")
"15.4 µM"

###

Each item that follows carries a reported GI50.
- Test system: T-47D breast
- METHOD DESCRIPTION: NCI tumour cell line growth inhibition, 48 h
MEASUREMENT NAME: GI50

>>> result("Cc1ccc(S(=O)(=O)NC2=NCCN2C(=S)SN2CCn3c2nsc3=S)cc1")
"11.3 µM"
>>> result("CCOc1ccc2nc(S/C(=C/C=C(C#N)C#N)c3ccc(Cl)cc3)sc2c1")
"3.91 µM"
>>> result("CN1C(=O)/C(=C/c2c(Cl)[nH]c3ccccc23)c2ccccc21")
"22.5 µM"
>>> result("OCC#Cc1ccccc1C#CCCCCCCC#Cc1ccccc1C#CCO")
"18.1 µM"
>>> result("CCOC(=O)c1ccc2[nH]c(O)c(C(=Nc3ccc(N(C)C(=O)CN4CCN(C)CC4)cc3)c3ccccc3)c2c1")
"0.979 µM"
>>> result("O=C(O[C@H]1CN[C@H](C#Cc2cc3ncnc(Nc4ccc5c(cnn5Cc5ccccc5)c4)c3s2)C1)N1CCOCC1")
"2.89 µM"
>>> result("CCN(CC)CCNC(=O)c1cn2ncnc(Oc3ccc(NC(=O)Nc4ccc(Cl)c(C(F)(F)F)c4)cc3)c2c1C")
"1.8 µM"
>>> result("C[C@H](O)CNc1cc(-c2[nH]c3cccnc3c2-c2ccc(F)cc2)ccn1")
"8.88 µM"
>>> result("CCc1c2c(nc3ccc(OC(=O)NCc4ccc(B5OC(C)(C)C(C)(C)O5)cc4)cc13)-c1cc3c(c(=O)n1C2)COC(=O)[C@]3(O)CC")
"< 0.01 µM"
>>> result("Cn1c2c(c3ccc(-c4ccn[nH]4)cc3c1=O)C(=O)c1ccccc1-2")
"2.86 µM"

###

- Test system: RXF 393 renal
- METHOD DESCRIPTION: NCI tumour cell line growth inhibition, 48 h; in the data active = GI50 below about 0.43 µM; inactive = the rest
Outcome codes: active, inactive

>>> qualitative_label("CSCCC(NC(=O)CNC(=O)C(CC(=O)O)NC(=O)C(NC(=O)C(NC(=O)C(NC(=O)CNC(=O)C(CCC(N)=O)NC(=O)C(CCSC)NC(=O)C(CC(=O)O)NC(=O)C(C)NC(=O)C(C)NC(=O)C(NC(=O)C(CO)NC(=O)C(N)CC(C)C)C(C)O)C(C)C)C(C)C)C(C)O)C(=O)NC(C)C(=O)NC(CO)C(=O)NCC(=O)NC(CC(C)C)C(=O)NC(CC(=O)O)C(=O)NC(CCCCN)C(=O)NC(CC(=O)O)C(=O)NC(Cc1ccc(O)cc1)C(=O)NC(CC(C)C)C(=O)NC(CCCCN)C(=O)N1CCCC1C(=O)NC(CC(=O)O)C(=O)NC(CC(=O)O)C(=O)O (stereo unspecified)")
"inactive"
>>> qualitative_label("O=C1c2ccccc2C(=O)c2c1ccc(C(Br)Br)c2Cl")
"inactive"
>>> qualitative_label("CCOC(=O)c1ccc2[nH]c(O)c(C(=Nc3ccc(N(C)C(=O)CN4CCN(C)CC4)cc3)c3ccccc3)c2c1")
"active"
>>> qualitative_label("COC(=O)C1CCC(NC(=O)c2csc([C@@H](C[C@H](C(C)C)N(C)C(=O)[C@@H](NC(=O)[C@H]3CCCCN3C)C(C)C)OC(C)=O)n2)CC1 (stereo partly specified)")
"active"
>>> qualitative_label("Oc1ccccc1N=Cc1c(O)ccc2ccccc12")
"inactive"
>>> qualitative_label("CCN(CC)CCOc1nc2c3ccc(Cl)cc3nn2c2ccccc12")
"inactive"
>>> qualitative_label("CN1C(=O)/C(=C/c2c(Cl)[nH]c3ccccc23)c2ccccc21")
"inactive"
>>> qualitative_label("Cc1cc(C(=O)NC(C)(C)C)cc(C#Cc2ccc3c4c(oc3c2)C(C)(C)c2cc(NS(C)(=O)=O)ccc2C4=O)n1")
"inactive"
>>> qualitative_label("Clc1ccc(N2CCN(CCCN3CCN(c4cccc(Cl)c4)CC3)CC2)cc1")
"inactive"
>>> qualitative_label("CCCN1C(=O)/C(=C/c2cccc(O)c2)SC1=Nc1ccccc1")
"inactive"
>>> qualitative_label("CN1C(=O)N(C)C2C1NN=c1s/c(=C\\c3ccccc3F)c(=O)n12 (stereo unspecified)")
"active"

###

Each item that follows carries a reported TGI.
- Test system: COLO 205 colon
- METHOD DESCRIPTION: NCI tumour cell line growth inhibition, 48 h
MEASUREMENT NAME: TGI (µM)

>>> result_number("O=C(CCN1CCCCC1)Nc1ccc2sc3ccccc3c(=O)c2n1")
24.5
>>> result_number("O=C(COc1cccc(/C=C2/Oc3ccccc3C2=O)c1)Nc1nccs1")
97.9

###

- Tested on: SK-MEL-2 melanoma
- METHOD DESCRIPTION: NCI tumour cell line growth inhibition, 48 h
MEASUREMENT NAME: GI50

>>> result("CCCN1C(=O)/C(=C/c2cccc(O)c2)SC1=Nc1ccc(OC)cc1")
"31900 nM"
>>> result("Cc1cc(C)c(C#N)c(SCC(=O)c2sc3c(C#N)c(C)cc(C)[n+]3c2[O-])n1")
"624 nM"
>>> result("Cc1ccc(-c2cc3c(NC(=O)C4CC4)ncnc3o2)cc1")
"> 25000 nM"
>>> result("Cc1cc(C(=O)NC(C)(C)C)cc(C#Cc2ccc3c4c(oc3c2)C(C)(C)c2cc(NS(C)(=O)=O)ccc2C4=O)n1")
"1980 nM"
>>> result("O=C(Nc1ccc(Cl)cc1)Nc1ccc(Oc2nncc3ccccc23)cc1")
"1570 nM"
>>> result("Oc1ccccc1N=Cc1c(O)ccc2ccccc12")
"13300 nM"
>>> result("CCC1=C(C)c2cc3[n-]c(cc4nc(c(C=O)c5[n-]c(cc1n2)c(C)c5CC)C(C)=C4CC)c(C)c3CC.[Ni+2]")
"> 100000 nM"
>>> result("CCN(CC)CCNC(=O)c1cn2ncnc(Oc3ccc(NC(=O)Nc4ccc(Cl)c(C(F)(F)F)c4)cc3)c2c1C")
"1970 nM"
>>> result("Cn1c2c(c3ccc(-c4ccn[nH]4)cc3c1=O)C(=O)c1ccccc1-2")
"> 100000 nM"
>>> result("Cc1ccc(S(=O)(=O)NC2=NCCN2C(=S)SN2CCn3c2nsc3=S)cc1")
"28600 nM"
>>> result("CCc1c2c(nc3ccc(OC(=O)NCc4ccc(B5OC(C)(C)C(C)(C)O5)cc4)cc13)-c1cc3c(c(=O)n1C2)COC(=O)[C@]3(O)CC")
"790 nM"
>>> result("CCN(CC)CCOc1nc2c3ccc(Cl)cc3nn2c2ccccc12")
"2160 nM"
>>> result("OCC#Cc1ccccc1C#CCCCCCCC#Cc1ccccc1C#CCO")
"34600 nM"

###

- System: HCT-116 colon
- METHOD DESCRIPTION: NCI tumour cell line growth inhibition, 48 h
MEASUREMENT NAME: TGI

>>> result("Oc1c(-c2ccccc2)nc2ccccn12")
"> 100 µM"
>>> result("CCOC(=O)c1ccc2[nH]c(O)c(C(=Nc3ccc(N(C)C(=O)CN4CCN(C)CC4)cc3)c3ccccc3)c2c1")
"1.26 µM"
>>> result("Cc1cc(C(=O)NC(C)(C)C)cc(C#Cc2ccc3c4c(oc3c2)C(C)(C)c2cc(NS(C)(=O)=O)ccc2C4=O)n1")
"> 100 µM"
>>> result("CC1C2C=CC1C(c1c3ccc(=O)c(O)c-3oc3c(O)c(O)ccc13)C2C(=O)O (centres undefined)")
"69.7 µM"
>>> result("Nc1ccc2c(c1)S(=O)(=O)c1cc(O)ccc1O2")
"> 100 µM"
>>> result("C/C(=N\\NC(C)(C)C)c1sc(-c2nc(C)c(/C(C)=N/NC(C)(C)C)s2)nc1C")
"> 100 µM"
>>> result("CCc1c2c(nc3ccc(OC(=O)NCc4ccc(B5OC(C)(C)C(C)(C)O5)cc4)cc13)-c1cc3c(c(=O)n1C2)COC(=O)[C@]3(O)CC")
"> 100 µM"
>>> result("Nc1ccc2nc3n(c(=O)c2c1)CCCCC3")
"> 100 µM"
>>> result("CN1CCN(c2ccc(N3Cc4ccccc4OC4=C3C(=O)c3c(O)ccc(O)c3C4=O)cn2)CC1")
"0.326 µM"

This collection of values is drawn from PubChem BioAssay (NCI).
